Data provenance is the supplement of paper PMC8728848.

Items are presented alongside their recorded glycan array binding signal (z-score).
- measured on: Gal3S6S(b1-4)GlcNAc
- protocol notes: glycan array binding signal (z-score within array); higher = stronger binding
- reported conditions: glycan notation: IUPAC condensed, linker removed
This excerpt belongs to a sample that is enriched for the strongest signals.
result type: glycan array binding signal (z-score)

[[record]]
binder = "X56-1 (Clostridium perfringens), P26831 (protein) MGSSHHHHHHSSGLVPRGSHMASDPNRIIATYISNRQDAPTGNPDNIFDNNASTELVYKNPNRIDVGTYVGVKYSNPITLNNVEFLMGANSNPNDTMQKAKIQYTVDGREWIDLEEGVEYTMPGAIKVENLDLKVRGVRLIATEARENTWLGVRDINVNKKEDSNSGVEF"
result_type = "glycan array binding signal (z-score)"
reported_measurement = -0.196

[[record]]
binder = "SJCP3842 (Schistosoma japonicum) (protein) MFKMRIINLVNISTVLLLINLLQTKSRLVGKENGFMLTVSIYGAQLSDKMTSVPVSWTIDYEDPEKSAFKKLVTDSCDTFSEYVKSQIPKGSVDGQCTSHIFQRPGSGSGVSISLTLSFIYVDVTQPDTVALKTELEKHFANFVTIHSHKITQAQFRINQKAIVIPTGDKDAIDGSKWKIIAIIALVALAIVVIGGFIYICVK"
result_type = "glycan array binding signal (z-score)"
reported_measurement = 2.36

